Taken from patent US20240269298A1.

Can you tell me AUC(0-t) for the items I'm about to list?
Assay: Pharmacokinetic test in mice
Type: in vivo
Conditions: male, ICR, mouse, po, administration i.g. (10 mg/kg), plasma
One number for each entry, in ng·h/mL.

Reference set (3 entries):
COc1cc(N2CCC(CN3CCC4(CC3)CCN(c3ccc5c(c3)C(=O)N(C3CCC(=O)NC3=O)C5=O)CC4)CC2)c(-c2cnn(C)c2)cc1Nc1ncc(Br)c(Nc2ccc(-c3ccccc3F)cc2P(C)(C)=O)n1 (stereo not shown) [Compound 95] : 20800
COc1cc(N2CCC(CN3CCC4(CC3)CCN(c3ccc5c(c3)C(=O)N(C3CCC(=O)NC3=O)C5=O)CC4)CC2)c(-c2cnn(C)c2)cc1Nc1ncc(Br)c(Nc2ccc(-c3ccccc3)cc2P(C)(C)=O)n1 (stereo not shown) [Compound 37] : 21700
COc1cc(N2CCC(CN3CCC4(CCCN(c5ccc6c(c5)C(=O)N(C5CCC(=O)NC5=O)C6=O)C4)CC3)CC2)c(-c2cnn(C)c2)cc1Nc1ncc(Br)c(Nc2ccc(-c3ccccc3)cc2P(C)(C)=O)n1 (stereo not shown) [Compound 38] : 3730

// next item, AUC(0-t) requested
What does the record list as AUC(0-t) for COc1cc(N2CCC(N3CCC4(CCN(c5ccc6c(c5)C(=O)N(C5CCC(=O)NC5=O)C6=O)CC4)CC3)CC2)c(-c2cnn(C)c2)cc1Nc1ncc(Br)c(Nc2ccc(-c3ccccc3)cc2P(C)(C)=O)n1 (stereo not shown) [Compound 84] ? 4570

---

Can you tell me log10 of AUC for the items I'm about to list?
Assay: Pharmacokinetic test in mice
Assay type: in vivo
Conditions: male, ICR, mouse, po, administration i.g. (10 mg/kg), plasma
In our notation, the value equals log10 of AUC in ng·h/mL.

Reference set (5 entries):
COc1cc(N2CCC(CN3CCN(c4ccc5c(c4)C(=O)N(C4CCC(=O)NC4=O)C5=O)CC3)CC2)c(-c2cnn(C)c2)cc1Nc1ncc(Br)c(Nc2ccc(-c3ccccc3F)cc2P(C)(C)=O)n1 (stereo not drawn) [Compound 101] : 5.07
COc1cc(N2CCC(CN3CCN(c4ccc5c(c4)C(=O)N(C4CCC(=O)NC4=O)C5=O)CC3)CC2)c(-c2cnn(C)c2)cc1Nc1ncc(Cl)c(Nc2ccc(C3CC3)cc2P(C)(C)=O)n1 (stereo not drawn) [Compound 107] : 5.11
COc1cc(N2CCC(CN3CCN(c4ccc5c(c4)C(=O)N(C4CCC(=O)NC4=O)C5=O)CC3)CC2)c(-c2cnn(C)c2)cc1Nc1ncc(Cl)c(Nc2ccc(F)cc2P(C)(C)=O)n1 (stereo not drawn) [Compound 142] : 5.02
COc1cc(N2CCC(N3CCN(c4ccc5c(c4)C(=O)N(C4CCC(=O)NC4=O)C5=O)CC3)CC2)c(-c2cnn(C)c2)cc1Nc1ncc(Cl)c(Nc2ccc(-c3ccccc3)cc2P(C)(C)=O)n1 (stereo not drawn) [Compound 92] : 4.80
COc1cc(N2CCN(CC3CCN(c4ccc5c(c4)C(=O)N(C4CCC(=O)NC4=O)C5=O)C3)CC2)c(-c2cnn(C)c2)cc1Nc1ncc(Cl)c(Nc2ccc(-c3ccccc3)cc2P(C)(C)=O)n1 (stereo not drawn) [Compound 68] : 4.73

Could you tell me log10 of AUC for each of these compounds? They are listed below.
1. COc1cc(N2CCN(c3ccc4c(c3)C(=O)N(C3CCC(=O)NC3=O)C4=O)CC2)c(-c2cnn(C)c2)cc1Nc1ncc(Br)c(Nc2ccc(-c3ccccc3)cc2P(C)(C)=O)n1 (stereo not drawn) [Compound 80]
2. COc1cc(N2CCC(N3CCN(C(=O)CNc4cccc5c4C(=O)N(C4CCC(=O)NC4=O)C5=O)CC3)CC2)ccc1Nc1ncc(Cl)c(Nc2ccccc2P(C)(C)=O)n1 (stereo not drawn) [Control compound B, reference compound]
3. COc1cc(N2CCN(CC3CCN(c4ccc5c(c4)C(=O)N(C4CCC(=O)NC4=O)C5=O)CC3)CC2)c(-c2cnn(C)c2)cc1Nc1ncc(Br)c(Nc2ccc(-c3ccccc3)cc2P(C)(C)=O)n1 (stereo not drawn) [Compound 77]
4. COc1cc(N2CCC(CN3CCN(c4ccc5c(c4)C(=O)N(C4CCC(=O)NC4=O)C5=O)CC3)CC2)c(-c2cnn(C)c2)cc1Nc1ncc(Cl)c(Nc2ccc(-c3ccccc3F)cc2P(C)(C)=O)n1 (stereo not drawn) [Compound 102]

4.91
3.32
4.67
4.94

---

Assay: Pharmacokinetic test in mice
Type: in vivo
Conditions: male, ICR, mouse, po, administration i.g. (10 mg/kg), plasma
measured.property: log10(AUC(0-t)) (log10 of the value in ng·h/mL)
In our notation, the value equals log10 of AUC(0-t) in ng·h/mL.

Reference set (8 entries):
COc1cc(N2CCC(N3CCN(CC4CCN(c5ccc6c(c5)C(=O)N(C5CCC(=O)NC5=O)C6=O)CC4)CC3)CC2)c(-c2cnn(C)c2)cc1Nc1ncc(Br)c(Nc2ccc(C3CC3)cc2P(C)(C)=O)n1 (stereo not drawn) : 4.30
COc1cc(N2CCC(N3CCN(c4ccc5c(c4)C(=O)N(C4CCC(=O)NC4=O)C5=O)CC3)CC2)c(-c2cnn(C)c2)cc1Nc1ncc(Br)c(Nc2ccc(-c3ccccc3)cc2P(C)(C)=O)n1 (stereo not drawn) : 4.71
COc1cc(N2CCC(CN3CCN(c4ccc5c(c4)C(=O)N(C4CCC(=O)NC4=O)C5=O)CC3)CC2)c(-c2cnn(C)c2)cc1Nc1ncc(Cl)c(Nc2ccc(-c3ccccc3)cc2P(C)(C)=O)n1 (stereo not drawn) : 4.79
COc1cc(N2CCC(N3CCC4(CCCN(c5ccc6c(c5)C(=O)N(C5CCC(=O)NC5=O)C6=O)C4)CC3)CC2)c(-c2cnn(C)c2)cc1Nc1ncc(Cl)c(Nc2ccc(-c3ccccc3)cc2P(C)(C)=O)n1 (stereo not drawn) : 3.51
COc1cc(N2CCC(CN3CCC4(CCCN(c5ccc6c(c5)C(=O)N(C5CCC(=O)NC5=O)C6=O)C4)CC3)CC2)c(-c2cnn(C)c2)cc1Nc1ncc(Cl)c(Nc2ccc(-c3ccccc3)cc2P(C)(C)=O)n1 (stereo not drawn) : 3.93
COc1cc(N2CCC(N3CCN(C4CC5(CCN(c6ccc7c(c6)C(=O)N(C6CCC(=O)NC6=O)C7=O)CC5)C4)CC3)CC2)c(-c2cnn(C)c2)cc1Nc1ncc(Cl)c(Nc2ccc(-c3ccccc3)cc2P(C)(C)=O)n1 (stereo not drawn) : 3.88
COc1cc(N2CCC(N3CCC4(CCCN(c5cc6c(cc5F)C(=O)N(C5CCC(=O)NC5=O)C6=O)C4)CC3)CC2)c(-c2cnn(C)c2)cc1Nc1ncc(Br)c(Nc2ccc(-c3ccccc3)cc2P(C)(C)=O)n1 (stereo not drawn) : 3.71
COc1cc(N2CCC(N3CCN(C4CC5(CCN(c6ccc7c(c6)C(=O)N(C6CCC(=O)NC6=O)C7=O)CC5)C4)CC3)CC2)c(-c2cnn(C)c2)cc1Nc1ncc(Br)c(Nc2ccc(-c3ccccc3)cc2P(C)(C)=O)n1 (stereo not drawn) : 4.17

// next item, log10(AUC(0-t)) requested
What does the record list as log10(AUC(0-t)) for COc1cc(N2CCC(N3CCN(CC4CCN(c5ccc(C(=O)NC6CCC(=O)NC6=O)nc5)CC4)CC3)CC2)c(-c2cnn(C)c2)cc1Nc1ncc(Br)c(Nc2ccc(-c3ccccc3)cc2P(C)(C)=O)n1 (stereo not drawn) ? 4.46

---

Experiment: Pharmacokinetic test in mice
Type: in vivo
Details: male, ICR, mouse, po, administration i.g. (10 mg/kg), plasma
Can you tell me AUC(0-t) for the items I'm about to list?
Give bare numbers, in ng·h/mL.

Reference set (2 entries):
COc1cc(N2CCC(N3CCN(CC4CCN(c5ccc6c(c5)C(=O)N(C5CCC(=O)NC5=O)C6=O)CC4)CC3)CC2)c(-c2cnn(C)c2)cc1Nc1ncc(Cl)c(Nc2ccc3ccccc3c2P(C)(C)=O)n1 (stereo not drawn) : 16400
COc1cc(N2CCN(C[C@H]3CCN(c4ccc5c(c4)C(=O)N(C4CCC(=O)NC4=O)C5=O)C3)CC2)c(-c2cnn(C)c2)cc1Nc1ncc(Br)c(Nc2ccc(-c3ccccc3F)cc2P(C)(C)=O)n1 (stereo partly drawn) : 101000

// next item, AUC(0-t) requested
What does the record list as AUC(0-t) for COc1cc(N2CCC3(CCN(CC4CCN(c5ccc6c(c5)C(=O)N(C5CCC(=O)NC5=O)C6=O)CC4)CC3)CC2)c(-c2cnn(C)c2)cc1Nc1ncc(Cl)c(Nc2ccc(-c3ccccc3)cc2P(C)(C)=O)n1 (stereo not drawn) ? 4460

---

Assay: Pharmacokinetic test in mice
Assay type: in vivo
Details: male, ICR, mouse, po, administration i.g. (10 mg/kg), plasma
measured.property: AUC(0-t) (ng·h/mL)
One number for each entry, in ng·h/mL.

COc1cc(N2CCC(CN3CCN(c4ccc5c(c4)C(=O)N(C4CCC(=O)NC4=O)C5=O)CC3)CC2)c(-c2cnn(C)c2)cc1Nc1ncc(Br)c(Nc2ccc(-c3ccccc3)cc2P(C)(C)=O)n1 (stereo not drawn) : 59200
COc1cc(N2CCC(N3CCN(CC4CCN(c5ccc6c(c5)C(=O)N(C5CCC(=O)NC5=O)C6=O)CC4)CC3)CC2)c(-c2cnn(C)c2)cc1Nc1ncc(Br)c(Nc2ccc3ccccc3c2P(C)(C)=O)n1 (stereo not drawn) : 24700

// next item, AUC(0-t) requested
What does the record list as AUC(0-t) for COc1cc(N2CCC(N3CCN(CC4CCN(c5cc6c(cc5F)C(=O)N(C5CCC(=O)NC5=O)C6=O)CC4)CC3)CC2)c(-c2cnn(C)c2)cc1Nc1ncc(Cl)c(Nc2ccc(-c3ccccc3)cc2P(C)(C)=O)n1 (stereo not drawn) ? 4620
